Listing of entries alongside the reported Rice plant response rating.
Test system: rice
Test: Test B flood test rice
Type: in vivo, Oryza sativa
Details: Rate 500 g/ha, Pre-emergence section of Table B; 0 to 10 scale (0 no effect, 10 complete control)
Description: At the same time, these crop and weed species were also treated with postemergence applications of test chemicals formulated in the same manner. Plants ranged in height from 2 to 18 cm (1- to 4-leaf stage) for postemergence treatments. […] Treated plants and controls were maintained in a greenhouse for twelve to sixteen days, after which all species were compared to controls and visually evaluated. […]
Give the figure by itself; no unit, no explanation.

MOLECULE | TARGET ENTITY | RECORDED RESULT
COC(C)n1c(=O)on(C(=O)N(c2ccc(F)cc2F)C(C)C)c1=O (centres unmarked) [Compound 593] | rice | 0
CC(C)N(C(=O)n1oc(=O)n(CC2CC2)c1=O)c1ccc(F)cc1F [Compound 509] | rice | 0
CC(C)N(C(=O)n1oc(=O)n(CC2CCC2)c1=O)c1ccc(Cl)cc1 [Compound 550] | rice | 0

Task: For rice, give the measured Rice plant response rating of the entry COC(=O)C(CCO)n1c(=O)on(C(=O)N(c2ccc(Cl)cc2)C(C)C)c1=O (centres unmarked) [Compound 679]
Output: 0

Task: For rice, give the measured Rice plant response rating of the entry CC(C)N(C(=O)n1oc(=O)n(CCC2OCCCO2)c1=O)c1ccc(Cl)cc1 [Compound 532]
Output: 8

* * *

tested on: blackgrass; assay: Test B pre/postemergence blackgrass; type: in vivo, Alopecurus myosuroides; settings: Rate 250 g/ha; Postemergence
Listing of entries alongside the reported Plant response rating (0 to 10; 0 is no effect, 10 is complete control), Blackgrass.
Give the figure by itself; no unit, no explanation.

Task: // fetch Plant response rating (0 to 10; 0 is no effect, 10 is complete control), Blackgrass given entry Cc1ccccc1-n1c(=O)on(C(=O)N(c2ccc(C(C)C)cc2)C(C)C)c1=O [Compound 231]
Output: 0

* * *

Test system: wheat
Experiment: Test B pre/postemergence wheat
Assay type: in vivo, Triticum aestivum
Conditions: Preemergence, Rate 500 g/ha; scale of 0 to 10 where 0 is no effect and 10 is complete control
Protocol: […] At the same time, these crop and weed species were also treated with postemergence applications of test chemicals formulated in the same manner. […] Treated plants and controls were maintained in a greenhouse for twelve to sixteen days, after which all species were compared to controls and visually evaluated. […]
QUANTITY NAME: Plant response rating, Wheat
Give the figure by itself; no unit, no explanation.

MOLECULE | Plant response rating, Wheat
CC(C)N(C(=O)n1oc(=O)n(C2CCCC2)c1=O)c1ccc(F)cc1 | 3
CC(C)N(C(=O)n1oc(=O)n(CCF)c1=O)c1ccccc1 | 8
CC(C)N(C(=O)n1oc(=O)n(C(C)CBr)c1=O)c1ccc(F)cc1F (stereo not drawn) | 2
C=C(Cl)Cn1c(=O)on(C(=O)N(c2ccccc2)C(C)C)c1=O | 0
CC(C)N(C(=O)n1oc(=O)n(Cc2ccccn2)c1=O)c1ccc(F)cc1 | 0

In the following, a different molecule is considered.
Task: // fetch Plant response rating, Wheat given entry CC(C)N(C(=O)n1oc(=O)n(CCC(=O)N(C)C)c1=O)c1ccc(F)cc1
Output: 7

* * *

Tested on: crabgrass
Test: Test B pre/postemergence crabgrass
Type: in vivo, Digitaria sanguinalis
Details: Preemergence, Rate 125 g/ha; scale 0 to 10, 0 is no effect, 10 is complete control
Experimental: […] At the same time, these crop and weed species were also treated with postemergence applications of test chemicals formulated in the same manner. […] Treated plants and controls were maintained in a greenhouse for twelve to sixteen days, after which all species were compared to controls and visually evaluated. […]
Listing of entries alongside the reported Crabgrass plant response rating.
Give the figure by itself; no unit, no explanation.

The following compounds have reported results that may help.
SMILES REPRESENTATION | Crabgrass plant response rating
CC(C)N(C(=O)n1oc(=O)n(CC2CCC2)c1=O)c1ccc(Cl)cc1 | 10
CCC(=O)Cn1c(=O)on(C(=O)N(c2ccc(F)cc2F)C(C)C)c1=O | 10
CCOC(=O)C=C(Cn1c(=O)on(C(=O)N(c2ccc(Cl)cc2)C(C)C)c1=O)OCC | 7
CC(C)N(C(=O)n1oc(=O)n(CCCF)c1=O)c1ccc(F)cc1F | 9
CC(=O)OCCCCn1c(=O)on(C(=O)N(c2ccc(F)cc2F)C(C)C)c1=O | 0
CC(=O)OCCCCn1c(=O)on(C(=O)N(c2ccc(Cl)cc2)C(C)C)c1=O | 0

In the following, a different compound is considered.
Task: // fetch Crabgrass plant response rating given entry CCN(CC)C(=O)Cn1c(=O)on(C(=O)N(c2ccc(F)cc2F)C(C)C)c1=O
Output: 7
